- Test system: microRNA 21
- Procedure details: Inhibition of miR-21 RNA (unknown origin) in HeLa cells harboring luciferase gene after 48 hrs by Bright-glo luciferase assay
Value kind: EC50 (µM)

compound=COc1ccc(OCC(=O)Nc2ccc(-c3nc4cc(Cl)ccc4o3)cc2)cc1 obs_value=6.7
compound=COc1ccc(OCC(=O)Nc2ccc(-c3nc4cc(-c5ccccc5)ccc4o3)cc2)cc1 obs_value=3.5
compound=COc1ccc(OCC(=O)Nc2ccc(-c3nc4cc(Br)ccc4o3)cc2)cc1 obs_value=6.4
compound=COc1cccc(OCC(=O)Nc2ccc(-c3nc4cc(Cl)ccc4o3)cc2)c1 obs_value=4.7

---

Entries and their measured inhibition follow.
- Test system: UniProt P08659
- Sequence (P08659 whole entry): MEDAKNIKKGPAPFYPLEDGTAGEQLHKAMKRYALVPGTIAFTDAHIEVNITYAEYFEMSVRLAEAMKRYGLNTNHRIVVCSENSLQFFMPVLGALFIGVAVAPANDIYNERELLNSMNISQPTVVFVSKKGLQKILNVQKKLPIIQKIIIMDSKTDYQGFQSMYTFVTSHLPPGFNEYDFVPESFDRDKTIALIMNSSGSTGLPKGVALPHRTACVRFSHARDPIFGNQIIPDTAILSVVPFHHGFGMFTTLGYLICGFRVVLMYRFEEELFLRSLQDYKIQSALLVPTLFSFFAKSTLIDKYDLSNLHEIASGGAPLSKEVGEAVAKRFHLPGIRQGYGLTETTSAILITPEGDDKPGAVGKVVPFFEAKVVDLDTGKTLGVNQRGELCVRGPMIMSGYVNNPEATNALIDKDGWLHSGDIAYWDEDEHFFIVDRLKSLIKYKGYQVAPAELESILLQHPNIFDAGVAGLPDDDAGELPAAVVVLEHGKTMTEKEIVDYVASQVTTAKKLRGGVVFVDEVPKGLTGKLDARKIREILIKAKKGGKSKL
- Procedure details: Inhibition of recombinant firefly luciferase activity assessed as reduction in luminescence at 10 uM by Bright-glo luciferase assay relative to control

Would you please look over these solved cases?
compound=COc1ccc(OCC(=O)Nc2ccc(-c3nc4cc(Br)ccc4o3)cc2)cc1 value_kind=inhibition obs_value=38%
compound=COc1cccc(OCC(=O)Nc2ccc(-c3nc4cc(Cl)ccc4o3)cc2)c1 value_kind=inhibition obs_value=44%

Attention now turns to another entry.
Enquiry: Note inhibition for the compound shown: COc1ccc(OCC(=O)Nc2ccc(-c3nc4cc(-c5ccccc5)ccc4o3)cc2)cc1
Return: 27%
